- measurementTarget: T1, human IL-17A with C-terminal Avi-tag, biotinylated, immobilized on BLI sensors (human, UniProt Q16552 24-155, biotin on the C-terminal Avi-tag (BirA))
- T1 construct: also called biotinylated IL-17A; not shown: C-terminal Avi-tag
- T1 sequence (Q16552 24-155): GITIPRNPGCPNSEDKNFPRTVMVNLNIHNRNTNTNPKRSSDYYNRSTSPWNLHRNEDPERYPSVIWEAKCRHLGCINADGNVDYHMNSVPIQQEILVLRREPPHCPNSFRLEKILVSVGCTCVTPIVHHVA
- assayProtocol: BLI, biotinylated IL-17A immobilized, monovalent VHH as analyte; 2:1 heterogenous model, high affinity component
pKd: −log10 of the molar value.
measurementLabel: pKd

{"binder": "Bm42A09 (VHH, Class B, second generation) VHH: QVQLVESGGGLVRTGGSLRLSCSVSGDISSQSAMGWYRQVPGRQRELVAMIHTTKGDTYYADSVKGRFTISRINANNTIYLQMNNLKPEDTAIYYCTHNEPGDLYMGQGTLVTVSS", "measurementLabel": "pKd", "readoutNumber": 9.10}
{"binder": "Re42F08 (VHH, Class B, first generation) VHH: QVQLVESGGGLVKAGGSLRLSCVVSGHTSEISAMGWYRQAPGKQRELVALITSRSGDTHYSDSVKGRFSISRDNAKNTMYLQMNSLNPDDTAVYYCVHNEPGHLYMAQGTQVTVSS", "measurementLabel": "pKd", "readoutNumber": 9.00}
{"binder": "Bm44B04 (VHH, Class B, second generation) VHH: QVQLVESGGGLVRTGGSLRLSCSVSGDISSQSAMGWYRQVPGRQRELVAMIHTTKGDTYYADSVKGRFTISRINANNTIYLQMNNLKPEDTAIYYCTHNEPGDLYMGQGTQVTVSS", "measurementLabel": "pKd", "readoutNumber": 9.22}
{"binder": "Bm42A03 (VHH, Class C, second generation) VHH: QVQLVESGGGLVQPGGSLRLSCVASGFTFSSFAMSWYRQDPGKERKLVAAITNDGGTTFYSDLVKGRFTISRDNTKNTVYLQMNNVKPDDAAVYYCMAVRGLYGSNWYDYPFELWGQGTQVTVSS", "measurementLabel": "pKd", "readoutNumber": 9.82}
{"binder": "Bm44G07 (VHH, Class B, second generation) VHH: QVQLVQSGGGLVQTGGSLRLSCSVSGDISSQSAMGWYRQVPGRQRELVAMIHTTKGDTYYADSVKDRFTISRINANNTIHLQMNNLKPEDTAIYYCTHNEPGDLYMGQGTQVTVSS", "measurementLabel": "pKd", "readoutNumber": 8.52}
{"binder": "Bm44G10 (VHH, Class C, second generation) VHH: QVQLVESGGGLVQPGGSLRLSCVASGFTFSSFAMSWYRQDPGRERKLVAAITNDGGTTFYSDLVKGRFTISRDNTKNTVYLQMNNVKPDDAAVYYCMAVRGLYGSNWYDYPFELWGQGTQVTVSS", "measurementLabel": "pKd", "readoutNumber": 9.70}
